Tested on: LYMPHOCYTES
assay-notes: Disease to normal ratio of enzyme activity, lymphocytes (Table 5)
Assay type: cell-based, human
run-parameters: JRA
Numbered stars: 1 amine (or outer) side, 2 acyl side, 3 side chain; on linkers, the order of the positions; unused ones are H or OH. Bridge positions count the residues as written; N and C are the ends. Peptide text beside a SMILES is read from it. I, II: the chains in the order shown. Rhodamine110 = O=C1OC2(c3ccc(N[*:1])cc3Oc3cc(N[*:2])ccc32)c2ccccc21
In plain terms, low Ratio of disease to normal, meaning strictly below 2, gives Yes, and everything else gives No.

CC(=O)Oc1ccc2c(c1)Oc1cc(OC(C)=O)ccc1C21OC(=O)c2ccccc21 [FDA-NAF, reference compound]	Yes
CC(C)[C@H](N)C(=O)N[C@@H](CCCCN)C(=O)Nc1ccc2c(c1)Oc1cc(NC(=O)[C@H](CCCCN)NC(=O)[C@@H](N)C(C)C)ccc1C21OC(=O)c2ccccc21 [VK-M, (Val-Lys)2 Rho 110 (modified)]	No
CC(=O)Oc1ccc2c(c1)Oc1cc(OC(C)=O)ccc1C21OC(=O)c2ccccc21 [FDA, fluorescein diacetate, reference compound]	Yes

Now consider a different molecule.
Q. Confirm or reject: Ratio of disease to normal of N=C(N)NCCC[C@H](N)C(=O)NCC(=O)N[C@@H](CCC(=O)O)C(=O)N[C@@H](CO)C(=O)Nc1ccc2c(c1)Oc1cc(NC(=O)[C@H](CO)NC(=O)[C@H](CCC(=O)O)NC(=O)CNC(=O)[C@@H](N)CCCNC(=N)N)ccc1C21OC(=O)c2ccccc21 (stereo partly drawn) [RGES, (Arg-Gly-Glu-Ser)2 Rho 110] (I: H-RGES / II: H-RGES; linker I:C-II:C via Rhodamine110) lies strictly below 2
A. Yes

====

Form field: Ratio of disease to normal (one value per entry).
System: MONOCYTES
assay-notes: Disease to normal ratio of enzyme activity, monocytes (Table 5)
Type: cell-based, human
run-parameters: Kawasaki's, monocytes
Numbered stars: 1 amine (or outer) side, 2 acyl side, 3 side chain; on linkers, the order of the positions; unused ones are H or OH. Bridge positions count the residues as written; N and C are the ends. Peptide text beside a SMILES is read from it. I, II: the chains in the order shown. Rhodamine110 = O=C1OC2(c3ccc(N[*:1])cc3Oc3cc(N[*:2])ccc32)c2ccccc21
Would you mind answering with just the numeric figure?

Recorded Ratio of disease to normal, per entry:
O=C(NCC(=O)N1CCC[C@H]1C(=O)Nc1ccc2c(c1)Oc1cc(NC(=O)[C@@H]3CCCN3C(=O)CNC(=O)OCc3ccccc3)ccc1C21OC(=O)c2ccccc21)OCc1ccccc1 [Z-GP]	4.06
C[C@H](NC(=O)CNC(=O)[C@H](Cc1ccccc1)NC(=O)CN)C(=O)Nc1ccc2c(c1)Oc1cc(NC(=O)[C@H](C)NC(=O)CNC(=O)[C@H](Cc3ccccc3)NC(=O)CN)ccc1C21OC(=O)c2ccccc21 [GFGA, (Gly-Phe-Gly-Ala)2 Rho 110] (I: H-GFGA / II: H-GFGA; linker I:C-II:C via Rhodamine110)	1.77
CC(C)[C@H](N)C(=O)N[C@@H](CCCCN)C(=O)Nc1ccc2c(c1)Oc1cc(NC(=O)[C@H](CCCCN)NC(=O)[C@@H](N)C(C)C)ccc1C21OC(=O)c2ccccc21	5.38

From here, focus on the item given below.
Q. Reported Ratio of disease to normal for O=C(NCC(=O)N1CCC[C@H]1C(=O)Nc1ccc2c(c1)Oc1cc(NC(=O)[C@@H]3CCCN3C(=O)CNC(=O)OCc3ccccc3)ccc1C21OC(=O)c2ccccc21)OCc1ccccc1 [Z-GP-M] : what is it?
A. 4.47

====

Tested on: LYMPHOCYTES
assay-notes: Disease to normal ratio of enzyme activity, lymphocytes (Table 5)
Type: cell-based, human
run-parameters: Dermatomyositis
Numbered stars: 1 amine (or outer) side, 2 acyl side, 3 side chain; on linkers, the order of the positions; unused ones are H or OH. Bridge positions count the residues as written; N and C are the ends. Peptide text beside a SMILES is read from it. I, II: the chains in the order shown. Rhodamine110 = O=C1OC2(c3ccc(N[*:1])cc3Oc3cc(N[*:2])ccc32)c2ccccc21
metric: Ratio of disease to normal
// no unit string in output, number only

Below: 5 molecules and their reported Ratio of disease to normal.
C[C@@H](O)[C@H](NC(=O)OCc1ccccc1)C(=O)N1CCC[C@H]1C(=O)Nc1ccc2c(c1)Oc1cc(NC(=O)[C@@H]3CCCN3C(=O)[C@@H](NC(=O)OCc3ccccc3)[C@@H](C)O)ccc1C21OC(=O)c2ccccc21	3.87
C[C@H](NC(=O)CNC(=O)[C@H](Cc1ccccc1)NC(=O)CN)C(=O)Nc1ccc2c(c1)Oc1cc(NC(=O)[C@H](C)NC(=O)CNC(=O)[C@H](Cc3ccccc3)NC(=O)CN)ccc1C21OC(=O)c2ccccc21 [GFGA, (Gly-Phe-Gly-Ala)2 Rho 110] (I: H-GFGA / II: H-GFGA; linker I:C-II:C via Rhodamine110)	2.14
C[C@H](NC(=O)[C@@H](N)CCCCN)C(=O)Nc1ccc2c(c1)Oc1cc(NC(=O)[C@H](C)NC(=O)[C@@H](N)CCCCN)ccc1C21OC(=O)c2ccccc21 [KA-M, (Lys-Ala)2 Rho 110]	1.93
C[C@H](NC(=O)[C@@H](N)CCCCN)C(=O)Nc1ccc2c(c1)Oc1cc(NC(=O)[C@H](C)NC(=O)[C@@H](N)CCCCN)ccc1C21OC(=O)c2ccccc21 [KA, (Lys-Ala)2 Rho 110]	1.39
O=C(NCC(=O)N1CCC[C@H]1C(=O)Nc1ccc2c(c1)Oc1cc(NC(=O)[C@@H]3CCCN3C(=O)CNC(=O)OCc3ccccc3)ccc1C21OC(=O)c2ccccc21)OCc1ccccc1 [Z-GP-M]	3.45

Q. Which measured Ratio of disease to normal value corresponds to CC(C)[C@H](N)C(=O)N[C@@H](CCCCN)C(=O)Nc1ccc2c(c1)Oc1cc(NC(=O)[C@H](CCCCN)NC(=O)[C@@H](N)C(C)C)ccc1C21OC(=O)c2ccccc21 ?
A. 1.39

Q. Field entry: O=C(NCC(=O)N1CCC[C@H]1C(=O)Nc1ccc2c(c1)Oc1cc(NC(=O)[C@@H]3CCCN3C(=O)CNC(=O)OCc3ccccc3)ccc1C21OC(=O)c2ccccc21)OCc1ccccc1 [Z-GP]
A. 1.73

Q. Entry CC(=O)Oc1ccc2c(c1)Oc1cc(OC(C)=O)ccc1C21OC(=O)c2ccccc21 [FDA-NAF, reference compound] please
A. 1.14

Q. Here is the next molecule: N=C(N)NCCC[C@H](N)C(=O)NCC(=O)N[C@@H](CCC(=O)O)C(=O)N[C@@H](CO)C(=O)Nc1ccc2c(c1)Oc1cc(NC(=O)[C@H](CO)NC(=O)[C@H](CCC(=O)O)NC(=O)CNC(=O)[C@@H](N)CCCNC(=N)N)ccc1C21OC(=O)c2ccccc21 (stereo partly drawn) [RGES, (Arg-Gly-Glu-Ser)2 Rho 110] (I: H-RGES / II: H-RGES; linker I:C-II:C via Rhodamine110)
A. 2.06

Q. Now this one: C[C@H](N)C(=O)Nc1ccc2c(c1)Oc1cc(NC(=O)[C@H](C)N)ccc1C21OC(=O)c2ccccc21
A. 1.16

Q. Next record, please: CC(C)C[C@H](N)C(=O)Nc1ccc2c(c1)Oc1cc(NC(=O)[C@@H](N)CC(C)C)ccc1C21OC(=O)c2ccccc21
A. 1.36

Q. Consider next the molecule CC(=O)Oc1ccc2c(c1)Oc1cc(OC(C)=O)ccc1C21OC(=O)c2ccccc21 [FDA, fluorescein diacetate, reference compound] in the same way.
A. 1.06

====

Test system: LYMPHOCYTES
assay-notes: Disease to normal ratio of enzyme activity, lymphocytes (Table 5)
Type: cell-based, human
run-parameters: Lupus
Numbered stars: 1 amine (or outer) side, 2 acyl side, 3 side chain; on linkers, the order of the positions; unused ones are H or OH. Bridge positions count the residues as written; N and C are the ends. Peptide text beside a SMILES is read from it. I, II: the chains in the order shown. Rhodamine110 = O=C1OC2(c3ccc(N[*:1])cc3Oc3cc(N[*:2])ccc32)c2ccccc21
Consider the following compounds and their measured Ratio of disease to normal readings.

Known results for compounds:
NCC(=O)Nc1ccc2c(c1)Oc1cc(NC(=O)CN)ccc1C21OC(=O)c2ccccc21 [GLY, (Gly)2 Rho 110]	1.64
C[C@H](N)C(=O)Nc1ccc2c(c1)Oc1cc(NC(=O)[C@H](C)N)ccc1C21OC(=O)c2ccccc21 [ALA, (Ala)2 Rho 110]	1.16
O=C(NCC(=O)N1CCC[C@H]1C(=O)Nc1ccc2c(c1)Oc1cc(NC(=O)[C@@H]3CCCN3C(=O)CNC(=O)OCc3ccccc3)ccc1C21OC(=O)c2ccccc21)OCc1ccccc1 [Z-GP]	1.93
CC(C)C[C@H](N)C(=O)Nc1ccc2c(c1)Oc1cc(NC(=O)[C@@H](N)CC(C)C)ccc1C21OC(=O)c2ccccc21 [LEU, (Leu)2 Rho 110]	1.93

Could you now look at the following compound, please?
Q. Look up Ratio of disease to normal with LYMPHOCYTES for this compound: N=C(N)NCCC[C@H](N)C(=O)NCC(=O)N[C@@H](CCC(=O)O)C(=O)N[C@@H](CO)C(=O)Nc1ccc2c(c1)Oc1cc(NC(=O)[C@H](CO)NC(=O)[C@H](CCC(=O)O)NC(=O)CNC(=O)[C@@H](N)CCCNC(=N)N)ccc1C21OC(=O)c2ccccc21 (stereo partly drawn) [RGES, (Arg-Gly-Glu-Ser)2 Rho 110] (I: H-RGES / II: H-RGES; linker I:C-II:C via Rhodamine110)
A. 1.84
